Where do the numbers come from? From ChEMBL document CHEMBL3507680.

assay: Human HepG2 cell viability assay in 384 well format; type: toxicity, cell-based; parameters: dose 125 nL, time 70.5 hour; concentration not given beside the values; conditions: HepG2 cells, read-out: Inhibition
For each entry below, report its cytotoxicity at 70.5 h value.
The answer is to be given in %; state only the numeric part.

Task item: Using the record for O=C(c1cnccn1)N1CCOC2(CCN(Cc3ccsc3)CC2)C1 , report its cytotoxicity at 70.5 h.
Reply: 4.24

Task item: Query COc1ccccc1[C@@H]1CN(Cc2cnn(C)c2C)C[C@H]1C(=O)O next
Reply: 7.39

Task item: Also CCNC(=O)N1CC[C@H]2CC(=O)N(C3CCCCC3)CC[C@H]2C1 , if possible.
Reply: -5.33

Task item: Here is the next compound: CN(C)C(=O)Cc1ccc(NC(=O)NC2CCCC2)cc1
Reply: -7.5

Task item: Thanks! And O=c1ccc2c(n1Cc1cccnc1)CCN(C1CCOC1)CC2 (stereo not drawn) ?
Reply: -2.89

Task item: Queued: Cc1ncc(Cl)c(C(=O)N2CCCC(n3nc(C)nc3C)C2)n1 (stereo not drawn)
Reply: -6.14

Task item: Please give the result for O=C(c1ccnnc1)N1CCN2C[C@H](Oc3cccc(F)c3)C[C@H]2C1 too.
Reply: -5.78

Task item: Then what about the compound COc1cc(CN(C)C(=O)NC2CC2)ccc1SC ?
Reply: -3.48

Task item: Could you do the same for Cc1csc(C(Cc2ccsc2)NC(=O)CN(C)Cc2ccccn2)n1 (stereo not drawn) , please?
Reply: -5

Task item: What about this compound? Cc1cc(Br)ccc1CNC(=O)C1(O)CCSCC1
Reply: 9.16

Task item: Quick one: CN(C)[C@@H]1CN(Cc2ccoc2)C[C@@H]2CCCO[C@@H]21
Reply: -8.48

Task item: Check Cc1cc(C)c2cc(CNCC3CCCO3)c3nn(C)c(=O)n3c2c1 (stereo not drawn) too.
Reply: -6.37

Task item: Also CCOc1ccc(CC(=O)N(CCC(=O)OC)CC2CCCO2)cc1 (stereo not drawn) , if possible.
Reply: -14.3

Task item: Same again, this time with CC(C)(NC(=O)c1scnc1Cl)c1ccccc1
Reply: -12.8

Task item: Let us now turn to O=C1CC(c2ccsc2)c2sc(C(=O)O)c(-c3ccccc3)c2N1 (stereo not drawn)
Reply: -11.4

Task item: Also Cc1cc(N(C)Cc2ncc[nH]2)nc(-c2cccnc2)n1 ?
Reply: -11.2

Task item: Follow-up item: CC1(C)CNC(=O)CN(C(=O)Cc2ccccc2)C1
Reply: 0.101

Task item: Same question, COc1c(CNCc2ccccc2Cn2cncn2)c(C)nn1C this time
Reply: -1.28

Task item: Try this compound too: CC(O)CN1CC(C)(C)CN(C(=O)CCc2ccccc2)CC1=O (stereo not drawn)
Reply: -2.42

Task item: Do the same for CNC(=O)C1CCCN(C(=O)C2CCC2)C1 (stereo not drawn) please
Reply: -11.6

Task item: What do we get for Cc1ccc(C(N)=O)cc1NCCOc1cccc(C#N)c1 ?
Reply: -4.01

Task item: Next up: O=C1OCCN1C1CCN(Cc2cc3n(n2)CCCNC3)CC1
Reply: 17.1

Task item: Next up: COCCCC1(CO)CCCN(CCOC)C1 (stereo not drawn)
Reply: -4.83

Task item: Note, next up: CCOCc1ccccc1NC(=O)NCC(C)(O)c1cccs1 (stereo not drawn)
Reply: -1.02

Task item: Try the compound Cc1nc(Nc2nncs2)cc(C2CCCN2)n1 (stereo not drawn)
Reply: -4.59

Task item: c1cncc(-c2noc(CNCC3CCCN3c3cccnn3)n2)c1 (stereo not drawn) ?
Reply: -2.21

Task item: Note, next up: Cc1nccn1CC1CCCN(Cc2ccc(-c3cccnc3)cc2)C1 (stereo not drawn)
Reply: -9.2

Task item: Another: CC(C(=O)NC(N)=O)N1CCN(c2ccc(C#N)cc2F)CC1 (stereo not drawn)
Reply: -19.1

Task item: Subsequent entry: CCC(=O)N1CCC2(CC1)c1nc[nH]c1CCN2S(C)(=O)=O
Reply: -4.48

Task item: Further, for CNc1cc(N2CCCC2CNCc2csc(C(C)C)n2)ncn1 (stereo not drawn) ?
Reply: 28.6

Task item: Then COC(=O)CCC(=O)N1CCC2(CN(Cc3cccc(F)c3)C2)C1 ?
Reply: 0.281

Task item: Repeat with CN(Cc1cc[nH]n1)C(=O)c1cn(Cc2ccccc2Cl)nn1
Reply: -9.32

Task item: Now try CCc1ccc(CN2CCC3(CCCN(C(=O)N(C)C)C3)C2)o1 (stereo not drawn) .
Reply: -10.4

---

assay: Human HepG2 cell viability assay in 384 well format; format: toxicity, cell-based; set-up: dose 125 nL, time 70.5 hour; concentration not given beside the values; conditions: HepG2 cells, read-out: Inhibition
property_name: cytotoxicity at 70.5 h (%)
Just the number in %, nothing appended.

Task item: Consider the molecule shown here: CCN1CCCC1CNC(=O)CCc1cccs1 (centres undefined) What is its recorded cytotoxicity at 70.5 h?
Reply: -3.71

Task item: // next record CC1CCN(C(=O)CSCc2nc(C3CC3)no2)CC1
Reply: -2.56

Task item: // repeat for Cc1cc(N)nc(C2(C)CCCN2C(=O)Cc2ccc(F)cc2)n1 (centres undefined) and report
Reply: -8.7

Task item: How about COCCNC(=O)NC(c1ccccc1)c1ccccc1OC (centres undefined) ?
Reply: -3.63

Task item: Try CCc1nnc(CN(CC)C(=O)C2CC(=O)N(Cc3cccnc3)C2)o1 (centres undefined) next.
Reply: -11.4

Task item: Do the same for CCNC(=O)N(C)C1CCCc2nc(C)sc21 (centres undefined) please
Reply: -2.26

Task item: What do you have for CN(Cc1nncn1C)C(=O)c1cc(COc2ccccc2F)[nH]n1 ?
Reply: -11.1

Task item: Quick one: c1ccc(-c2ncc(CN3CCC4(CCNCC4)C3)cn2)cc1
Reply: -7.74

Task item: Now this one: Cc1noc(C)c1S(=O)(=O)N1C[C@@H](C(=O)O)[C@H](c2ccccn2)C1
Reply: -10.9

Task item: What do you get for O=C(Nc1cccc2c1CCCC2)c1cccnc1N1CCCNCC1 ?
Reply: -5.23

Task item: Field entry: Cn1ccnc1CN1CCc2ncnc(N3CCCC(C#N)C3)c2CC1 (centres undefined)
Reply: 26.4

Task item: Would you kindly repeat that for CC(C)CN1C(=O)C2(CCN(Cc3ccsc3)C2)c2ccccc21 (centres undefined) ?
Reply: -13

Task item: Okay, and COC1COC2(CCN(c3ccc(C#N)cc3)CC2)C1 (centres undefined) ?
Reply: -5.93

Task item: Then what about the molecule COc1ccc(C2CNCCN2C(=O)c2cccc3ncccc23)cc1 (centres undefined) ?
Reply: -3.21

Task item: Also CCN(CC)c1nc(C)cc(C(=O)Nc2cnn(CC)c2)n1 ?
Reply: -12.1

Task item: Record: CN(C)c1cc(CNCc2cccc3c2OCCO3)ccn1
Reply: -4.63

Task item: Would you kindly repeat that for CC1CCCCN1C(=O)Cn1cnc(C#N)n1 (centres undefined) ?
Reply: -6.77

Task item: Also CNC(=O)c1ccc(C2CN(Cc3ccc(F)cc3)CCO2)nc1 (centres undefined) , if possible.
Reply: -1.99

Task item: Now the molecule CN1CCN(C(=O)c2cc3occc3n2Cc2ccccc2F)CC1
Reply: -10.6

Task item: Subsequent entry: CCC(O)c1nc2c([nH]1)CC(C)(C)CNC2=O (centres undefined)
Reply: 13

Task item: What do you get for COc1ccc(OC)c(CCC(=O)Nc2cc(C)n[nH]2)c1 ?
Reply: -13.4

Task item: Another molecule to look at: O=C1NC2(CCNCC2)CC1c1cccnc1 (centres undefined)
Reply: -7.17

Task item: Subsequent entry: O=C(CC1COCCN1)NCCc1nc(-c2ccccn2)no1 (centres undefined)
Reply: -6.55

Task item: Now the molecule O=C(c1cc(-c2ccco2)cs1)N1CCOCC1
Reply: -0.411

Task item: Also CCC(CNC(=O)N1CCOCC2(CCOCC2)C1)c1ccccc1 (centres undefined) ?
Reply: -5.59

Task item: Lookup CN(C)CCCNCCC(Cc1ccccc1)C1CCOC(C)(C)C1 (centres undefined)
Reply: 1.12

Task item: Also need Cc1csc(C(=O)N2CCCC(c3[nH]ncc3S(C)(=O)=O)C2)c1 (centres undefined) , thanks.
Reply: -0.679

Task item: Likewise for CC(=O)N1CCN(C(=O)CN2CCN(c3cccc(C)c3)CC2)CC1 ?
Reply: -6.8

Task item: Now consider Cc1nc(C2CCCN2CCOCC2CC2)no1 (centres undefined) .
Reply: -11.1

---

test: Human HepG2 cell viability assay in 384 well format; type: toxicity, cell-based; set-up: dose 125 nL, time 70.5 hour; concentration not given beside the values; conditions: HepG2 cells, read-out: Inhibition
property_name: cytotoxicity at 70.5 h (%)
Your answer should be a plain number; it is taken to be in %.

Task item: May I ask what cytotoxicity at 70.5 h has been recorded for Cc1ccn(CCNC(=O)C2(C)CC(c3ccccc3)=NO2)n1 (centres undefined) ?
Reply: -1.48

Task item: Next compound: CCOc1ncc(NC(=O)c2ccco2)c(OCC)n1
Reply: -0.599

Task item: How about this compound: O=C(c1cccnc1)N1CCO[C@@H]2CNC[C@@H]21
Reply: -4.67

Task item: Here is the next compound: O=C(c1ccc(F)cc1F)N(CC(F)(F)F)C1CCOCC1
Reply: -4.08

Task item: Then what about the compound COc1ccc(C(C)NC(=O)C2CCN(S(C)(=O)=O)CC2)cc1C (centres undefined) ?
Reply: -4.77

Task item: Further, for Cc1ccoc1C(=O)NC1CCN(C(=O)Nc2ccccn2)CC1 ?
Reply: -5.66

Task item: Would you mind doing COCC(C)NS(=O)(=O)c1ccc(Br)cn1 (centres undefined) as well?
Reply: -11.1

Task item: Do the same for COc1ccccc1CN1CCN(CCN2CCOC2=O)CC1 please
Reply: 8.76

Task item: Repeat for the following compound: O=C(NCC1CCS(=O)(=O)C1)c1ccc(NC(=O)c2ccco2)cc1 (centres undefined)
Reply: 26.8

Task item: Field entry: CCc1nc(C2CCCN2C(=O)c2ccc(N(C)C)nn2)no1 (centres undefined)
Reply: -0.946

Task item: And then COc1c(Cl)cccc1NCc1csc(NC(C)=O)n1 , what is it?
Reply: 3.58

Task item: Next compound: O=C(Nc1ccccc1)C1CN(CC2CC2)CC12CCOCC2 (centres undefined)
Reply: -17.6

Task item: Same question for c1cnn(CC2CN(Cc3csc(-c4ccsc4)n3)CCO2)c1 (centres undefined) please.
Reply: -6.82

Task item: Next compound up: O=C(CCc1n[nH]c2c1CCCC2)N1C[C@@H]2CC[C@H](C1)N(CC1CC1)C2
Reply: -7.45

Task item: Try O=C1COC2(CCN(S(=O)(=O)C3CC3)CC2)CN1c1ccsc1 next.
Reply: -17.5

Task item: And the next one, O=C(c1cn(Cc2ccc(Cl)cc2)nn1)N1CCCO1 ?
Reply: -10.9

Task item: Now try Fc1cccc(-c2nc(CN3CCn4c(nnc4C4CC4)C3)co2)c1 .
Reply: -8.24

Task item: Please give the result for CNc1cc2c(nn1)CCN(C(=O)c1coc(Br)c1)C2 too.
Reply: 17.6

Task item: Again, but for CN1CCNC(Cc2ccc(-c3ccncc3)cc2)C1=O (centres undefined)
Reply: -5.04

Task item: Now try N#Cc1c(N)nc2c(c1-c1cnc(N3CCCC3)nc1)COCC2 .
Reply: -5.19

Task item: Can you check Cc1ccc(S(=O)(=O)N2CCCCC(N3CCN(C)CC3)C2)cc1F (centres undefined) next?
Reply: -5.17

Task item: What would you report for Cc1cc(CNC(=O)COc2ccccc2F)c(C)o1 ?
Reply: -0.958

Task item: Try this compound too: COCCN1Cc2nccn2CC(COCc2csc(C)n2)C1 (centres undefined)
Reply: -1.7

Task item: And then CNS(=O)(=O)c1ccc(CNC(=O)c2c(C)oc(C)c2C)cc1 , what is it?
Reply: -12.9

Task item: Param item: CC(C)n1ccnc1C1CCCN(c2ccnc3ccccc23)C1 (centres undefined)
Reply: -0.236

Task item: What do we get for CC(C)c1cc(C(=O)N[C@@H]2CC[C@@H](Oc3ccccc3)[C@@H]2O)on1 ?
Reply: -3.21

Task item: Same question, CCOCC1c2c(cnn2CC2CC2)CCN1C(=O)c1ccncn1 (centres undefined) this time
Reply: 20.9

Task item: Next compound: COC[C@@]12CCO[C@@H]1CCN(C(=O)COc1ccc(C)cc1)C2
Reply: -2.71

Task item: What about COCCN1CCO[C@@H]2CN(C(=O)c3ccc4[nH]ccc4c3)CC[C@@H]2C1 ?
Reply: -11.1

Task item: How about this compound: Cc1cccc(-c2cccc(CC3(C(=O)O)CCOCC3)c2)c1
Reply: 9.91

Task item: Please do the same for CCNC(=O)[C@@H]1C[C@H](N)CN1Cc1ccc2cccc(Cl)c2n1 as well.
Reply: -7.99

Task item: And for OCCN(Cc1ccncc1)CC1(c2ccc(Cl)cc2)CCCC1 ?
Reply: 1.74

Task item: Cool, now CN(C)S(=O)(=O)N1CCC(c2c(C(N)=O)sc3ccccc23)C1 (centres undefined)
Reply: -3.67

Task item: Another compound: O=C(NCC1CC1)C1CSCN1S(=O)(=O)c1ccccc1F (centres undefined)
Reply: 4.99
